Entry source: patent US9296734B2

Molecular target: Cathepsin D (Cat D) (Homo sapiens (Human), UniProt P07339)
Sequence (P07339 65-412, species assumed): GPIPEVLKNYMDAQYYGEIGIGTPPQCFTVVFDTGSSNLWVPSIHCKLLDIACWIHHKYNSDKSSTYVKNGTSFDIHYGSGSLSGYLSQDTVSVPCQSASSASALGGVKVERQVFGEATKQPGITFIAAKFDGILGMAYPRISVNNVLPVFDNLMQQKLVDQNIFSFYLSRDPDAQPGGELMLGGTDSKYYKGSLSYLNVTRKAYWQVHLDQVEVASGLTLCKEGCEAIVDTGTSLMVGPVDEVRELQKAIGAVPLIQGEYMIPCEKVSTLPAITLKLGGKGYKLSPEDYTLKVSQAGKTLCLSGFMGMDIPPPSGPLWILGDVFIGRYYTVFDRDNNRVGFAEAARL
Experiment: In vitro enzymatic Cathepsin D (Cat D) FRET assay
Type: biochemical
Settings: average IC50, cathepsin D enzyme assay; read-out: CatD IC50
// reported IC50 per item
Respond with the bare value in µM.

[in] Tell us which IC50 value is on record for C#CCOc1ccc(C(=O)Nc2ccc(F)c([C@]3(C)C[C@@H](C(F)(F)F)OC(N)=N3)c2)nc1
[out] 666

[in] Tell us which IC50 value is on record for NC1=N[C@](CF)(c2cc(Nc3ccnc(Br)c3)ccc2F)C[C@@H](C(F)(F)F)O1
[out] 469

[in] Tell us which IC50 value is on record for COc1cnc(C(=O)Nc2cc(F)c(F)c([C@]3(CF)C[C@@H](C(F)(F)F)OC(N)=N3)c2)cn1
[out] 3360

[in] Tell us which IC50 value is on record for NC1=N[C@](CF)(c2cc(NC(=O)c3nn(C(F)F)cc3Cl)ccc2F)C[C@@H](C(F)(F)F)O1
[out] 2380

====

// reported pIC50 per item
Target: Cathepsin D (Cat D) (Homo sapiens (Human), UniProt P07339)
Assay: In vitro enzymatic Cathepsin D (Cat D) FRET assay
Format: biochemical
Conditions: average IC50; read-out: CatD IC50
pIC50: −log10 of the molar value.

[in] Provide pIC50, tested on Cathepsin D (Cat D) (Homo sapiens (Human), UniProt P07339), for Cc1cc(Cl)cnc1C(=O)Nc1cnc(F)c([C@]2(C)C[C@@H](C(F)(F)F)OC(N)=N2)c1 [Example 61] .
[out] < 3.40

[in] Provide pIC50, tested on Cathepsin D (Cat D) (Homo sapiens (Human), UniProt P07339), for NC1=N[C@](CF)(c2cc(Nc3ncnc4cc(Cl)cnc34)ccc2F)C[C@@H](C(F)(F)F)O1 [Example 11] .
[out] 4.26

[in] Provide pIC50, tested on Cathepsin D (Cat D) (Homo sapiens (Human), UniProt P07339), for COc1ccc(C(=O)Nc2cnc(F)c([C@]3(CF)C[C@@H](C(F)(F)F)OC(N)=N3)c2)nc1 [Example 142] .
[out] 2.26

[in] Provide pIC50, tested on Cathepsin D (Cat D) (Homo sapiens (Human), UniProt P07339), for NC1=N[C@](CF)(c2cc(Oc3nccc(C(F)(F)F)c3F)ccc2F)C[C@@H](C(F)(F)F)O1 [Example 109] .
[out] < 3.40

[in] Provide pIC50, tested on Cathepsin D (Cat D) (Homo sapiens (Human), UniProt P07339), for N#Cc1cnc(C(=O)Nc2ccc(F)c([C@]3(CF)C[C@@H](C(F)(F)F)OC(N)=N3)c2)c(Cl)c1 [Example 32] .
[out] < 3.40

[in] Provide pIC50, tested on Cathepsin D (Cat D) (Homo sapiens (Human), UniProt P07339), for COc1cc(C#N)cnc1C(=O)Nc1ccc(F)c([C@]2(CF)C[C@@H](C(F)(F)F)OC(N)=N2)c1 [Example 48] .
[out] < 3.40

[in] Provide pIC50, tested on Cathepsin D (Cat D) (Homo sapiens (Human), UniProt P07339), for NC1=N[C@](CF)(c2cc(NC(=O)c3ccc(Br)cn3)ccc2F)C[C@@H](C(F)(F)F)O1 [Example 52] .
[out] < 3.40

[in] Provide pIC50, tested on Cathepsin D (Cat D) (Homo sapiens (Human), UniProt P07339), for N#Cc1cnc2c(Nc3ccc(F)c([C@]4(CF)C[C@@H](C(F)(F)F)OC(N)=N4)c3)ncc(F)c2c1 [Example 10] .
[out] < 4.36

[in] Provide pIC50, tested on Cathepsin D (Cat D) (Homo sapiens (Human), UniProt P07339), for Cc1cc(Cl)cnc1C(=S)Nc1ccc(F)c([C@]2(CF)C[C@@H](C(F)(F)F)OC(N)=N2)c1 [Example 90] .
[out] < 3.40

[in] Provide pIC50, tested on Cathepsin D (Cat D) (Homo sapiens (Human), UniProt P07339), for C[C@@]1(c2cc(NC(=O)c3ccc(C#N)cn3)cnc2F)C[C@@H](C(F)(F)F)OC(N)=N1 [Example 62] .
[out] < 3.40

====

Target: Cathepsin D (Cat D) (Homo sapiens (Human), UniProt P07339)
Assay: In vitro enzymatic Cathepsin D (Cat D) FRET assay
Type: biochemical
Conditions: average IC50; read-out: CatD IC50
pIC50: −log10 of the molar value.
// reported pIC50 per item

MOLECULE	pIC50
NC1=N[C@](CF)(c2cc(NC(=O)c3ncc(Br)cc3Cl)ccc2F)C[C@@H](C(F)(F)F)O1 [Example 56]	< 3.40
C[C@@]1(c2cc(NC(=O)c3cnc(C(F)F)cn3)cc(F)c2F)C[C@@H](C(F)(F)F)OC(N)=N1 [Example 193]	< 3.40
N#Cc1cccnc1Oc1ccc(F)c([C@]2(CF)C[C@@H](C(F)(F)F)OC(N)=N2)c1 [Example 107]	2.85
Cc1c(C(=O)Nc2ccc(F)c([C@]3(CF)C[C@@H](C(F)(F)F)OC(N)=N3)c2)nc2ccc(Cl)cn12 [Example 6]	< 3.40
NC1=N[C@](CF)(c2cc(N)cnc2F)C[C@@H](C(F)(F)F)O1 [Example 138]	< 3.40

[in] Tell us which pIC50 value is on record for C[C@@]1(c2cc(Nc3ncc(F)c4cc(C#N)cnc34)cnc2F)C[C@@H](C(F)(F)F)OC(N)=N1 [Example 78]
[out] < 3.40

[in] Tell us which pIC50 value is on record for NC1=N[C@](CF)(c2cccc(NC(=O)c3ccc(Cl)cn3)c2)C[C@@H](C(F)(F)F)O1 [Example 143]
[out] 2.63

====

Tested on: Abeta 40 in CSF and brain
Experiment: In vivo inhibition of beta-secretase: Abeta 40 reduction in CSF and brain of the rat
Settings: Abeta 40, rat brain, 10 mpk (unless otherwise noted), after 4 hrs; read-out: % reduction of rat brain levels at 10 mpk
// reported inhibition in vivo at 10 mg/kg per item
Be sure to follow the number with its unit.

Completed entries (count: 2):
COMPOUND	inhibition in vivo at 10 mg/kg
Cc1cc(C#N)cnc1C(=O)Nc1ccc(F)c([C@]2(CF)C[C@@H](C(F)(F)F)OC(N)=N2)c1 [Example 51]	59%
COc1cnc(C(=O)Nc2ccc(F)c([C@]3(CF)C[C@@H](C(F)(F)F)OC(N)=N3)c2)c(Cl)c1 [Example 50]	22%

[in] Provide inhibition in vivo at 10 mg/kg, tested on Abeta 40 in CSF and brain, for C[C@@]1(c2cc(NC(=O)c3ccc(Cl)cn3)cnc2F)C[C@@H](C(F)(F)F)OC(N)=N1 [Example 60] .
[out] 72%

[in] Provide inhibition in vivo at 10 mg/kg, tested on Abeta 40 in CSF and brain, for N#Cc1cnc(C(=O)Nc2ccc(F)c([C@]3(CF)C[C@@H](C(F)(F)F)OC(N)=N3)c2)c(Cl)c1 [Example 32] .
[out] -3%

[in] Provide inhibition in vivo at 10 mg/kg, tested on Abeta 40 in CSF and brain, for CC#CCOc1cnc(C(=O)Nc2cc(F)c(F)c([C@]3(CF)C[C@@H](C(F)(F)F)OC(N)=N3)c2)cn1 [Example 155] .
[out] 11%

[in] Provide inhibition in vivo at 10 mg/kg, tested on Abeta 40 in CSF and brain, for NC1=N[C@](CF)(c2nc(NC(=O)c3nn(C(F)F)cc3Cl)ccc2F)C[C@@H](C(F)(F)F)O1 [Example 135] .
[out] 55%

[in] Provide inhibition in vivo at 10 mg/kg, tested on Abeta 40 in CSF and brain, for COc1cnc(C(=O)Nc2cc(F)c(F)c([C@]3(C)C[C@@H](C(F)(F)F)OC(N)=N3)c2)cn1 [Example 165] .
[out] 76%

[in] Provide inhibition in vivo at 10 mg/kg, tested on Abeta 40 in CSF and brain, for NC1=N[C@](CF)(c2cc(Nc3cc(Cl)ccn3)ccc2F)C[C@@H](C(F)(F)F)O1 [Example 16] .
[out] 87%

[in] Provide inhibition in vivo at 10 mg/kg, tested on Abeta 40 in CSF and brain, for C[C@@]1(c2cc(NC(=O)c3ccc(Cl)cn3)cc(F)c2F)C[C@@H](C(F)(F)F)OC(N)=N1 [Example 164] .
[out] 75%

====

Molecular target: UniProt:P07339
Experiment: In vitro enzymatic Cathepsin D (Cat D) FRET assay
Assay type: biochemical
Conditions: average IC50, cathepsin D enzyme assay; read-out: CatD IC50
// reported pIC50 per item
Worth noting: pIC50 values are minus log10 of concentrations stated in mol/L.

Completed entries (count: 2):
SMILES STRING	pIC50
NC1=N[C@](CF)(c2nc(NC(=O)c3ccc(Cl)cn3)ccc2F)C[C@@H](C(F)(F)F)O1	3.14
COc1cccnc1Nc1ccc(F)c([C@]2(CF)C[C@@H](C(F)(F)F)OC(N)=N2)c1	2.97

[in] Tell us which pIC50 value is on record for COc1cnc(C(=O)Nc2cc(F)c(F)c([C@]3(C)C[C@@H](C(F)(F)F)OC(N)=N3)c2)cn1
[out] 2.27

[in] Tell us which pIC50 value is on record for NC1=N[C@](CF)(c2cc(Nc3cc(Cl)ccn3)ccc2F)C[C@@H](C(F)(F)F)O1
[out] 2.79
